- protocol_summary: Stability in human plasma assessed as parent compound remaining at 1 uM measured after 2 hrs by LC-MS/MS analysis
readout_name: remaining at 2 h, 1 µM (%)

Recorded remaining at 2 h, 1 µM, per entry:
1. CC(C)[N+](C)(CCOC(=O)C1c2ccccc2Oc2ccccc21)C(C)C | 0
2. COc1ccc(-c2cn3ccc(N4CCN(C(C)C)CC4)cc3n2)cc1 | 60.4

(1) COc1ccc(-c2cn3ccc(N4CCN(C5CCCC5)CC4)cc3n2)c(OC)c1
(2) COc1ccc(-c2cn3ccc(N4CCN(C5CCCC5)CC4)cc3n2)c(OCCCN2CCOCC2)c1
Problem: Of 1 versus 2 , which is the one with smaller reported remaining at 2 h, 1 µM? Write down the label of the entry you select.
Result: 1
(1: 64.9%, 2: 94.3%)

* * *

- protocol_summary: Apparent permeability across apical to basolateral side in human Caco-2 cells measured after 120 mins by LC-MS/MS analysis
readout_name: Papp A→B at 2 h (×10⁻⁶ cm/s)

1) CC(C)NCC(O)COc1cccc2ccccc12 (configuration not stated) | 14.4
2) COc1ccc(-c2cn3ccc(N4CCN(C5CCCC5)CC4)cc3n2)c(OCCCN2CCOCC2)c1 | 15.4

* * *

- protocol_summary: Stability in mouse plasma assessed as parent compound remaining at 1 uM measured after 2 hrs by LC-MS/MS analysis
readout_name: remaining at 2 h, 1 µM (%)

1. CC(C)[N+](C)(CCOC(=O)C1c2ccccc2Oc2ccccc21)C(C)C [PROPANTHELINE] | 0
2. COc1ccc(-c2cn3ccc(N4CCN(C5CCCC5)CC4)cc3n2)c(OC)c1 | 93.4
3. COc1ccc(-c2cn3ccc(N4CCN(C(C)C)CC4)cc3n2)cc1 | 92.8
4. COc1ccc(-c2cn3ccc(N4CCN(C5CCCC5)CC4)cc3n2)c(OCCCN2CCOCC2)c1 | 90.6
